Kindly state melting point for each of the entries shown.

// lookup melting point for COC(=O)c1ccc(-c2nnc(-c3ccc(C(F)(F)F)cc3)s2)cc1 [Example 58]
218 to 219 °C

// next record COC(=O)c1ccc(-c2nc(-c3ccc(C(F)(F)F)cc3)no2)c(NC(=O)C(F)(F)F)c1 [Example 65]
188 to 189 °C

Could you do the same for Nc1cc(C(=O)O)ccc1-c1nc(-c2ccc(C(F)(F)F)cc2)no1 [Example 66] , please?
> 300 °C

Would you kindly repeat that for O=C(O)c1ccc(-c2noc(-c3ccc(C(F)(F)F)cc3)n2)cc1 [Example 44] ?
286 to 287 °C

Field entry: O=Cc1cccc(-c2nnc(-c3ccc(C(F)(F)F)cc3)o2)c1 [Example 80]
129 to 130 °C

Next record, please: CC(C)(C)c1ccc(-c2nnc(-c3ccc(C(=O)O)cc3)o2)cc1 [Example 50]
284 to 286 °C

Field entry: O=C(O)c1ccc(-c2nc(-c3ccccc3)ccc2Cl)cc1 [Example 2]
254 to 255 °C

Input O=C(O)c1ccc(-c2ccc(-c3ccc(C(F)(F)F)cc3)s2)cc1 [Example 16]
284 to 285 °C

Also O=C(O)c1ccc(-c2nnc(-c3ccc(C(F)(F)F)cc3)o2)c([N+](=O)[O-])c1 [Example 69] , if possible.
254 to 255 °C

Also need NC(=O)c1ccc(-c2ccc(-c3ccc(C(F)(F)F)cc3)o2)cc1 [Example 73] , thanks.
263 to 264 °C

Also Cn1nc(-c2ccc(C(=O)O)cc2)nc1-c1ccccc1 [Example 39] ?
243 to 244 °C

Quick one: Cn1c(-c2ccc(C(=O)O)cc2)ccc1-c1ccc(C(F)(F)F)cc1 [Example 7]
260 to 261 °C

Next compound up: COC(=O)c1ccc(-c2nnc(-c3ccc(C(C)(C)C)cc3)o2)c([N+](=O)[O-])c1 [Example 68]
142 to 143 °C

Cool, now O=C(O)c1ccc(-c2n[nH]c(-c3ccccc3)n2)cc1 [Example 38]
> 300 °C

Same lookup for O=C(O)c1ccc(-c2nnc(-c3ccc(C(F)(F)F)cc3)s2)cc1 [Example 59] , please.
> 300 °C

What about O=Cc1ccc(-c2noc(-c3ccc(C(F)(F)F)cc3)n2)cc1 [Example 77] ?
145 to 146 °C

Request: CCOC(=O)c1ccc(-c2ccc(-c3ccc(Cl)cc3)s2)cc1 [Example 13]
167 to 168 °C

Another: COC(=O)c1ccc(-c2cc(-c3ccc(Cl)cc3)on2)cc1 [Example 23]
225 to 226 °C

###

readout: melting point

Look up melting point: CC(C)(C)c1ccc(-c2nnc(-c3ccc(C(=O)O)cc3[N+](=O)[O-])o2)cc1
233 to 235 °C

Another: COC(=O)c1ccc(-c2nc(-c3ccc(Oc4ccccc4)cc3)no2)cc1
112 to 113 °C

What about O=C(O)c1cccc(-c2cc(-c3ccc(Cl)cc3)on2)c1 ?
298 to 299 °C

Follow-up item: O=C(O)c1ccc(-c2nc(-c3ccc(Oc4ccccc4)cc3)no2)cc1
278 to 279 °C

Next molecule: CCOC(=O)c1cccc(-c2ccc(-c3ccc(C(F)(F)F)cc3)o2)c1
93 to 94 °C

###

readout: melting point

Entry under review: O=C(O)c1cccc(-c2nnc(-c3ccc(C(F)(F)F)cc3)o2)c1 [Example 51] . Reported melting point?
239 to 240 °C

Again, but for O=C(O)c1ccc(-c2cc(-c3ccc(Cl)cc3)on2)cc1 [Example 30]
> 300 °C

Try Nc1cc(C(=O)O)ccc1-c1nc(-c2ccc(Cl)cc2)no1 [Example 64] next.
294 to 296 °C (dec.)

Cool, now CCOC(=O)c1ccc(-c2ccc(-c3ccc(C(F)(F)F)cc3)n2C)cc1 [Example 3]
150 to 151 °C

Check O=C(O)c1cccc(-c2cc(-c3ccc(C(F)(F)F)cc3)on2)c1 [Example 34] too.
276 to 277 °C
